pIC50 tested on cruzain (Trypanosoma cruzi): recorded values
Give bare numbers, as −log10 of the molar value.

Example entries and their recorded answers appear below.
compound="COc1ccc(NC(=O)COC(=O)[C@H](CC(C)C)N2C(=O)C=CC2=O)cc1Cl [10c]" readoutkind=pIC50 datavalue=5.64
compound="CC(C)C[C@@H](C(=O)OCC(=O)Nc1cccc(Cl)c1)N1C(=O)C2CC=CCC2C1=O (some centres unmarked) [3c]" readoutkind=pIC50 datavalue=4.40
compound="COc1ccc(NC(=O)COC(=O)[C@H](CC(C)C)N2C(=O)CCC2=O)cc1Cl [10d]" readoutkind=pIC50 datavalue=4.92
compound="CC(C)C[C@@H](C(=O)OCC(=O)Nc1ccc(F)cc1)N1C(=O)C2CC=CCC2C1=O (some centres unmarked) [3e]" readoutkind=pIC50 datavalue=4.69

Now examine the next entry.
Req: What does the record list as pIC50 for COc1ccc(NC(=O)COC(=O)[C@H](CC(C)C)N2C(=O)C3CCCCC3C2=O)cc1Cl (some centres unmarked) [10b] ?
Resp: 5.38

---

Exercise: state measured pIC50 for each of the compounds provided.
experimentalSystem: cruzain (Trypanosoma cruzi, UniProt P25779)
Sequence (P25779 123-337 limits assumed): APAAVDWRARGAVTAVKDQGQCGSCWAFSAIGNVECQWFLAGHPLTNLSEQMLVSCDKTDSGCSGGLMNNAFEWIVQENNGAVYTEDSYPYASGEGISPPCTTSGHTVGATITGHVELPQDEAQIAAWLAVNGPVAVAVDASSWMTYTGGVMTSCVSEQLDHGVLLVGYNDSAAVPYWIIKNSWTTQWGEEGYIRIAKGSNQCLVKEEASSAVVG
Numbers only, as −log10 of the molar value.

Example entries and their recorded answers appear below.
compound="COc1ccc(NC(=O)COC(=O)C(Cc2ccccc2)N2C(=O)C3CC=CCC3C2=O)cc1Cl (centres unmarked)" datavalue=5.94
compound="COc1ccc(NC(=O)COC(=O)[C@H](CC(C)C)N2C(=O)C=C(C)C2=O)cc1Cl [10e]" datavalue=5.60
compound="COc1ccc(NC(=O)COC(=O)[C@H](Cc2ccccc2)N2C(=O)C3CC=CCC3C2=O)cc1Cl (some centres unmarked) [10h]" datavalue=5.85
compound="COc1ccc(NC(=O)COC(=O)[C@H](CC(C)C)N2C(=O)C3CC=CCC3C2=O)cc1Cl (some centres unmarked)" datavalue=5.66
compound="COc1ccc(NC(=O)COC(=O)[C@H](Cc2ccccc2)N2C(=O)C=CC2=O)cc1Cl [10j]" datavalue=6.22

Required: pIC50, one value per compound below.
1. CC(C)C[C@@H](C(=O)OCC(=O)Nc1ccc2ccccc2c1)N1C(=O)C2CC=CCC2C1=O (some centres unmarked)
2. COc1ccc(NC(=O)COC(=O)[C@H](CC(C)C)N2C(=O)C3CC=CCC3C2=O)cc1 (some centres unmarked)
3. CC(C)C[C@@H](C(=O)OCC(=O)Nc1ccccc1)N1C(=O)C2CC=CCC2C1=O (some centres unmarked)

Resp:
1: 5.68; 2: 4.86; 3: 4.78

---

experimentalSystem: cruzain (Trypanosoma cruzi, UniProt P25779)
Construct: inferred from Ni-NTA purification of the pro-enzyme; made in house; host or cells: Escherichia coli (M15)
method: Cruzain inhibition assay (cleavage of fluorogenic substrate Z-Phe-Arg-AMC)
Assay type: biochemical
readoutKind: activity against cruzain (in words)

compound="COc1ccc(NCCOC(=O)C(CC(C)C)N2C(=O)C3CC=CCC3C2=O)cc1Cl (stereo not shown) [compound 7]" experimentalsystem="cruzain (Trypanosoma cruzi, UniProt P25779)" datavalue=inactive
compound="COc1ccc(NC(=O)COC(=O)[C@H](CC(C)C)N2CCCC2)cc1Cl [10k]" experimentalsystem="cruzain (Trypanosoma cruzi, UniProt P25779)" datavalue=inactive
compound="COc1ccc(NC(=O)COC(=O)CN2C(=O)C3CC=CCC3C2=O)cc1Cl (stereo not shown) [10g]" experimentalsystem="cruzain (Trypanosoma cruzi, UniProt P25779)" datavalue=inactive

---

experimentalSystem: cruzain (Trypanosoma cruzi, UniProt P25779)
Construct: inferred from Ni-NTA purification of the pro-enzyme; made in house; host or cells: Escherichia coli (M15)
method: Cruzain inhibition assay (cleavage of fluorogenic substrate Z-Phe-Arg-AMC)
Assay type: biochemical
testConditions: at 100 μM inhibitor; mean of three measurements; read-out: Percent inhibition against cruzain
readoutKind: inhibition at 100 µM

molecule="COc1ccc(NC(=O)COC(=O)[C@H](CC(C)C)N2C(=O)C3CC=CCC3C2=O)cc1 (some centres unmarked)" readoutkind="inhibition at 100 µM" datavalue=86%
molecule="COc1ccc(NCCOC(=O)C(CC(C)C)N2C(=O)C3CC=CCC3C2=O)cc1Cl (centres unmarked)" readoutkind="inhibition at 100 µM" datavalue=11%
molecule="COc1ccc(NC(=O)COC(=O)[C@H](CC(C)C)N2CCOCC2)cc1Cl [10m]" readoutkind="inhibition at 100 µM" datavalue=14%

Required: inhibition at 100 µM, one value per molecule below.
1. CC(C)C[C@@H](C(=O)OCC(=O)Nc1ccc(F)c([N+](=O)[O-])c1)N1C(=O)C2CC=CCC2C1=O (some centres unmarked)
2. CC(C)C[C@@H](C(=O)OCC(=O)Nc1cccc(Cl)c1)N1C(=O)C2CC=CCC2C1=O (some centres unmarked)

Resp:
["56%", "67%"]

---

method: Cytotoxicity in HepG2 cells (MTS tetrazolium assay)
Format: cell-based
testConditions: human, HepG2 hepatocytes, mean ± SD of two independent assays
readoutKind: CC50 at 72 h (µM)
Numbers only, in µM.

compound="CC(C)C[C@@H](C(=O)OCC(=O)Nc1ccc2ccccc2c1)N1C(=O)C2CC=CCC2C1=O (some centres unmarked)" datavalue=45
compound="COc1cccc2c1C(=O)c1c(O)c3c(c(O)c1C2=O)C[C@@](O)(C(=O)CO)C[C@@H]3O[C@H]1C[C@H](N)[C@H](O)[C@H](C)O1 [Doxorubicin, doxorubicin, reference compound]" datavalue=0.4
compound="COc1ccc(NC(=O)COC(=O)[C@H](CC(C)C)N2C(=O)C=C(C)C2=O)cc1Cl [10e]" datavalue=5
compound="COc1ccc(NC(=O)COC(=O)[C@H](CC(C)C)N2C(=O)C=CC2=O)cc1Cl [10c]" datavalue=33
compound="COc1ccc(NC(=O)COC(=O)[C@H](CC(C)C)N2CCN(C(=O)OC(C)(C)C)CC2)cc1Cl [10n]" datavalue=27

Required: CC50 at 72 h, one value per compound below.
1. COc1ccc(NC(=O)COC(=O)[C@H](Cc2ccccc2)N2C(=O)C=CC2=O)cc1Cl [10j]
2. COc1ccc(NC(=O)COC(=O)[C@H](CC(C)C)N2CCNCC2)cc1Cl.Cl [10o]
3. COc1ccc(NCCOC(=O)C(CC(C)C)N2C(=O)C3CC=CCC3C2=O)cc1Cl (centres unmarked)

Resp:
1: 67; 2: 52; 3: 63

---

Exercise: state measured CC50 at 72 h for each of the compounds provided.
method: Cytotoxicity in HFF-1 cells (MTS tetrazolium assay)
Assay type: cell-based
testConditions: human, HFF-1 fibroblasts, mean ± SD of two independent assays
Protocol: The cytotoxicities of the compounds against HFF-1 fibroblasts and HepG2 hepatocytes were evaluated using the MTS tetrazolium assay (Promega, Madison, WI) (Barltrop et al., [1991]). […] Each compound concentration was evaluated in triplicate. […] The absorbance was measured at 490 nm in an automated microplate reader, and the data were transferred to SigmaPlot 10.0 (Systat Software Inc., Erkrath, Germany) for IC50 value calculation. […]
Answers are plain numbers, in µM.

compound="COc1cccc2c1C(=O)c1c(O)c3c(c(O)c1C2=O)C[C@@](O)(C(=O)CO)C[C@@H]3O[C@H]1C[C@H](N)[C@H](O)[C@H](C)O1 [Doxorubicin, doxorubicin, reference compound]" outputunit=µM datavalue=0.21
compound="COc1ccc(NC(=O)COC(=O)[C@H](Cc2ccccc2)N2C(=O)C=CC2=O)cc1Cl [10j]" outputunit=µM datavalue=15.7

Now examine the next entry.
Req: What does the record list as CC50 at 72 h for COc1ccc(NC(=O)COC(=O)[C@H](CC(C)C)N2C(=O)C(Cl)=C(Cl)C2=O)cc1Cl [10f] ?
Resp: 33

---

experimentalSystem: cruzain (Trypanosoma cruzi, UniProt P25779)
Construct: inferred from Ni-NTA purification of the pro-enzyme; made in house; host or cells: Escherichia coli (M15)
method: Cruzain inhibition assay (cleavage of fluorogenic substrate Z-Phe-Arg-AMC)
Format: biochemical
testConditions: at 100 μM inhibitor; mean of three measurements; read-out: Percent inhibition against cruzain
Cut-off 50% on inhibition at 100 µM, inclusive. At or above means T; below means F.

Example entries and their recorded answers appear below.
molecule="CC(C)C[C@@H](C(=O)OCC(=O)Nc1ccc(Cl)cc1)N1C(=O)C2CC=CCC2C1=O (some centres unmarked) [3g]" answerlabel=T
molecule="COc1ccc(NC(=O)COC(=O)[C@@H](Cc2ccc3ccccc3c2)N2C(=O)C3CC=CCC3C2=O)cc1Cl (some centres unmarked) [10i]" answerlabel=T
molecule="CC(C)C[C@@H](C(=O)OCC(=O)Nc1ccc(Br)cc1)N1C(=O)C2CC=CCC2C1=O (some centres unmarked) [3f]" answerlabel=T

Req: For this molecule, is measured inhibition at 100 µM 50% or higher? COc1ccc(NC(=O)COC(=O)C(CC(C)C)N2C(=O)C3CC=CCC3C2=O)c([N+](=O)[O-])c1 (centres unmarked) [3m]
Resp: T

Req: For this molecule, is measured inhibition at 100 µM 50% or higher? COc1ccc(NC(=O)COC(=O)[C@H](CC(C)C)N2CCCCC2)cc1Cl [10l]
Resp: F

Req: For this molecule, is measured inhibition at 100 µM 50% or higher? COc1ccc(NC(=O)COC(=O)CN2C(=O)C3CC=CCC3C2=O)cc1Cl (centres unmarked) [10g]
Resp: F

Req: For this molecule, is measured inhibition at 100 µM 50% or higher? CC(C)C[C@@H](C(=O)OCC(=O)Nc1ccc2ccccc2c1)N1C(=O)C2CC=CCC2C1=O (some centres unmarked) [3i]
Resp: T

Req: For this molecule, is measured inhibition at 100 µM 50% or higher? COc1ccc(NC(=O)COC(=O)[C@H](CC(C)C)N2C(=O)C(Cl)=C(Cl)C2=O)cc1Cl [10f]
Resp: T

Data origin: paper PMC6886403
